Listing of entries alongside the reported IC50.
Target: Prostaglandin G/H synthase 1 (Ovis aries)
Sequence (P05979 whole entry): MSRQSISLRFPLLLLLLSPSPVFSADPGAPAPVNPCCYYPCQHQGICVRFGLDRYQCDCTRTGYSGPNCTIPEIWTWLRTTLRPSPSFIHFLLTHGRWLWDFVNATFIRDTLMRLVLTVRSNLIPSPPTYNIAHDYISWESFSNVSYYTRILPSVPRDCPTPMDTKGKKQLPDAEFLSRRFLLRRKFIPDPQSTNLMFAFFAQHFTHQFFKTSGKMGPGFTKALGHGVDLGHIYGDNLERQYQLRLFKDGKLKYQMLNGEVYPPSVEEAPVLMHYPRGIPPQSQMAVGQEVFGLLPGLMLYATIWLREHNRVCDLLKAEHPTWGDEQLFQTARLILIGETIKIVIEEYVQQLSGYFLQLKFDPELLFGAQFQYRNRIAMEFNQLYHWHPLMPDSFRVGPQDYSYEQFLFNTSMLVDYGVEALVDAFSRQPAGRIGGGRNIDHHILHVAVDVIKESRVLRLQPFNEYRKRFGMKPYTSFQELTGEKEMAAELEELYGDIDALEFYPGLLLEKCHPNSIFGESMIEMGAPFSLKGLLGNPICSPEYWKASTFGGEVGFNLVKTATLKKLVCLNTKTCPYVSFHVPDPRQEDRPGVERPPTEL
parameter: IC50 (µM)

moleculesmiles=COc1ccc(C2=C(c3ccc(Br)cc3)C(=O)OC2)cc1 unitlabel=µM inequalityoperator== assayresult=0.12
moleculesmiles=O=C1OCC(c2ccccc2F)=C1c1ccccc1 unitlabel=µM inequalityoperator=> assayresult=25
moleculesmiles=COc1ccc(C2=C(c3cccc(F)c3)C(=O)OC2)cc1 unitlabel=µM inequalityoperator== assayresult=0.36
moleculesmiles=COc1ccc(C2=C(c3ccnc(Cl)c3)C(=O)OC2)cc1 unitlabel=µM inequalityoperator== assayresult=4.4
moleculesmiles=CN(C)c1ccc(C2=C(c3ccccc3F)COC2=O)cc1 unitlabel=µM inequalityoperator=> assayresult=25
moleculesmiles=COc1ccc(C2=C(c3cccc(Cl)c3F)C(=O)OC2)cc1 unitlabel=µM inequalityoperator== assayresult=0.3
moleculesmiles=Cc1ccc(C2=C(c3ccnc(F)c3)C(=O)OC2)cc1 unitlabel=µM inequalityoperator=> assayresult=25
moleculesmiles=COc1ccc(C2=C(c3ccc(F)cc3)C(=O)OC2)cc1 unitlabel=µM inequalityoperator== assayresult=0.48
moleculesmiles=N#Cc1ccc(C2=C(c3ccnc(Cl)c3)C(=O)OC2)cc1 unitlabel=µM inequalityoperator== assayresult=3
moleculesmiles=N#Cc1ccc(C2=C(c3cccc(F)c3)C(=O)OC2)cc1 unitlabel=µM inequalityoperator== assayresult=0.47
moleculesmiles=O=C1OCC(c2ccc(Cl)cc2)=C1c1ccnc(Cl)c1 unitlabel=µM inequalityoperator=> assayresult=25
moleculesmiles=O=C1OCC(c2ccccc2F)=C1c1ccc(CO)cc1 unitlabel=µM inequalityoperator=> assayresult=25
moleculesmiles=Cc1ccc(C2=C(c3ccccc3F)COC2=O)cc1 unitlabel=µM inequalityoperator=> assayresult=25
moleculesmiles=O=C1OCC(c2cccc(F)c2)=C1c1ccccc1 unitlabel=µM inequalityoperator=> assayresult=25
moleculesmiles=O=C1OCC(c2ccccc2)=C1c1ccccc1 unitlabel=µM inequalityoperator== assayresult=5.9
moleculesmiles=CSc1ccc(C2=C(c3ccc(F)cc3)C(=O)OC2)cc1 unitlabel=µM inequalityoperator=> assayresult=25
moleculesmiles=O=C1OCC(c2ccc(O)cc2)=C1c1cccc(F)c1 unitlabel=µM inequalityoperator== assayresult=1.75
moleculesmiles=COc1ccc(C2=C(c3ccccc3)C(=O)OC2)cc1 unitlabel=µM inequalityoperator=> assayresult=25
moleculesmiles=O=C1OCC(c2ccc(C(F)(F)F)cc2)=C1c1cccc(F)c1 unitlabel=µM inequalityoperator=> assayresult=25
moleculesmiles=O=C1OCC(c2ccccc2F)=C1c1ccc(Br)cc1 unitlabel=µM inequalityoperator=> assayresult=25
moleculesmiles=COc1ccc(C2=C(c3ccccc3F)C(=O)OC2)cc1 unitlabel=µM inequalityoperator=> assayresult=25
moleculesmiles=O=C1OCC(c2ccc(F)cc2)=C1c1ccc(Cl)cc1 unitlabel=µM inequalityoperator=> assayresult=25
moleculesmiles=O=C1OCC(c2ccc(F)cc2)=C1c1ccc(CO)cc1 unitlabel=µM inequalityoperator=> assayresult=25
moleculesmiles=COc1ccc(C2=C(c3cccc(C(F)(F)F)c3)C(=O)OC2)cc1 unitlabel=µM inequalityoperator== assayresult=8.8
